FYI, the data here is from PubChem BioAssay (NCI).

System: HCT-15 colon
experiment_description: NCI-60 one-dose screen, 48 h (100 = growth as untreated, 0 = no growth, -100 = all killed)
conditions: 10 µM unless noted
This is part of a sample that, as a whole, favours compounds with a hit. Of some 83,000 tested, about 20% had one in any assay.
quantity_kind: growth (%)
Output spec: scalar in %, unitless text.

CN(C)CCCC(C#N)c1ccccc1 (stereo not given)	103
Cc1nc2cncc(C#Cc3cncc(C(=O)Nc4ccc(CN5CCN(C)CC5)c(C(F)(F)F)c4)c3)c2nc1C	8.31
Fc1ccc(Nc2ncnc3ccc(-c4cnc5[nH]ccc5c4)cc23)cc1Cl	31.1
COc1cc2c(c(OC)c1OC)-c1ccc(N)c(=O)cc1[C@@H](NC(C)=O)CC2	11.8
O=S(=O)(NCCNc1nccc(-c2c(-c3cccc(O)c3)nc3sccn23)n1)c1ccc(F)cc1	81

Input: Give me measured growth, please, for this compound: `C=C[C@@H]1C[C@@H]2Cc3cc(F)ccc3N1O2`
Output: 104

Input: Give me measured growth, please, for this compound: `CN(C)CCCN(c1nc(C(Cl)(Cl)Cl)ns1)c1nc(C(Cl)(Cl)Cl)ns1`
Output: 41.2

Input: Give me measured growth, please, for this compound: CCN(CC)CCC(CNc1c2ccc(Cl)cc2nc2ccc(OC)cc12)c1ccccc1 (stereo not given)
Output: -18.4

Input: Give me measured growth, please, for this compound: CCC(C)/C(=C\C#N)NCCCN/C(=C/C#N)C(C)CC (stereo not given)
Output: 97
